mass response by entry:
- Tested on: MOLM-13
- assay-details: mass response relative to vehicle control (EMD distance of treated vs reference mass distribution minus control baseline) (% of mean reference cell mass); higher = larger drug-induced change in single-cell mass distribution (stronger response)
- condition-details: 1 µM
// no unit string in output, number only

Query: Which mass response is reported with MOLM-13 for this entry: `Nc1ncn([C@@H]2O[C@H](CO)[C@@H](O)[C@H]2O)c(=O)n1` ?
Result: 10.1

***
Query: Which mass response is reported with MOLM-13 for this entry: `CC1(COc2ccc3c(c2)ncn3-c2ccc3cccc(N4CCC(N)CC4)c3n2)COC1` ?
Result: 38

Query: Which mass response is reported with MOLM-13 for this entry: `CC(=O)[C@]1(O)Cc2c(O)c3c(c(O)c2[C@@H](O[C@H]2C[C@H](N)[C@H](O)[C@H](C)O2)C1)C(=O)c1ccccc1C3=O` ?
Result: 36.6

Query: Which mass response is reported with MOLM-13 for this entry: `COc1cccc2c1C(=O)c1c(O)c3c(c(O)c1C2=O)C[C@@](O)(C(C)=O)C[C@@H]3O[C@H]1C[C@H](N)[C@H](O)[C@H](C)O1` ?
Result: 31.1
